# optical density values compiled below
Target: mouse ACVR2A (mouse, UniProt P27038 20-135, limits assumed); further: test concentration or dose not given here
Sequence (P27038 20-135 limits assumed): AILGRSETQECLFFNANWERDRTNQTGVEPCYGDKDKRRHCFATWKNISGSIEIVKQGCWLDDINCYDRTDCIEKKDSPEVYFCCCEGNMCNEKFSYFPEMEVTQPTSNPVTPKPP
Experiment: ELISA
Report as a plain number; the unit OD is understood.

// below: answered binders
367_G07 (antibody, V domains shown, VH/VL only) VH: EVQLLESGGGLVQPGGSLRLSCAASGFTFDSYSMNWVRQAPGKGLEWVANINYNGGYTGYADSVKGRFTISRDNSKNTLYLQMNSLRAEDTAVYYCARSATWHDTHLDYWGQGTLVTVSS VL: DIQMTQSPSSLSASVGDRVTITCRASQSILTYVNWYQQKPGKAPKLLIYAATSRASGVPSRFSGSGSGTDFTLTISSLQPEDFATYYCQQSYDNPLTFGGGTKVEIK :: 3.2
369_E10 (antibody, V domains shown, VH/VL only) VH: EVQLLESGGGLVQPGGSLRLSCAASGFTFSSYSMNWVRQAPGKGLEWVSNINYNGGYKSYADSVKGRFTISRDNSKNTLYLQMNSLRAEDTAVYYCARSATWHDTALDYWGQGTLVTVSS VL: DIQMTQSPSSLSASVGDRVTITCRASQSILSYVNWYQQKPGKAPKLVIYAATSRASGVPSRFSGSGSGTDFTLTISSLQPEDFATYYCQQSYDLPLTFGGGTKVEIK :: 3.53
367_H07 (antibody, V domains shown, VH/VL only) VH: EVQLLESGGGLVQPGGSLRLSCAASGFTFSSYSMNWVRQAPGKGLEWVANINYNGGYTGYADSVKGRFTISRDNSKNTLYLQMNSLRAEDTAVYYCARSATWHDTALDYWGQGTLVTVSS VL: DIQMTQSPSSLSASVGDRVTITCRASQSILSYVNWYQQKPGKAPKLVIYATTSRASGVPSRFSGSGSGTDFTLTISSLQPEDFATYYCQQSYENPLTFGGGTKVEIK :: 2.68
376_C02 (antibody, V domains shown, VH/VL only) VH: EVQLLESGGGLVQPGGSLRLSCAASGFTFDSYGMNWVRQAPGKGLEWVSGINYNSGYTSYADSVKGRFTISRDNSKNTLYLQMNSLRAEDTAVYYCARSANWHDTALDYWGQGTLVTVSS VL: DIQMTQSPSSLSASVGDRVTITCRASQSIVSYLNWYQQKPGKAPKLVIYAVTSRASGVPSRFSGSGSGTDFTLTISSLQPEDFATYYCQQSYDSPLTFGGGTKVEIK :: 3.53
375_D04 (antibody, V domains shown, VH/VL only) VH: EVQLLESGGGLVQPGGSLRLSCAASGFTFDDSSMHWVRQAPGKGLEWVSNINYNGGYTGYADSVKGRFTISRDNSKNTLYLQMNSLRAEDTAVYYCAKSANWHDTALDYWGQGTLVTVSS VL: DIQMTQSPSSLSASVGDRVTITCRASQSILSYVNWYQQKPGKAPKLVIYAATSRASGVPSRFSGSGSGTDFTLTISSLQPEDFATYYCQQSYELPLTFGGGTKVEIK :: 3.7

# input Recorded optical density for 374_F02 (antibody, V domains shown, VH/VL only) VH: EVQLLESGGGLVQPGGSLRLSCAASGFTFDSYSMNWVRQAPGKGLEWVANINYNSGYTSYADSVKGRFTISRDNSKNTLYLQMNSLRAEDTAVYYCARSANWHDTALDYWGQGTLVTVSS VL: DIQMTQSPSSLSASVGDRVTITCRASQSIVSYLNWYQQKPGKAPKLLIYAASSLQSGVPSRFSGSGSGTDFTLTISSLQPEDFATYYCQQSYELPLTFGGGTKVEIK , please?
# output 3.59

# input Item 366_A05 (antibody, V domains shown, VH/VL only) VH: EVQLLESGGGLVQPGGSLRLSCAASGFTFSSYSMNWVRQAPGKGLEWVAGINYNSGYTGYADSVKGRFTISRDNSKNTLYLQMNSLRAEDTAVYYCARSATWHDTHLDYWGQGTLVTVSS VL: DIQMTQSPSSLSASVGDRVTITCRASQSILTYVNWYQQKPGKAPKLVIYAATSLASGVPSRFSGSGSGTDFTLTISSLQPEDFATYYCQQSYNTPLTFGGGTKVEIK has what recorded optical density?
# output 2.6

# input // optical density lookup, key: 374_C08 (antibody, V domains shown, VH/VL only) VH: EVQLLESGGGLVQPGGSLRLSCAASGFTFDSYGMNWVRQAPGKGLEWVSGINYNSGYKSYADSVKGRFTISRDNSKNTLYLQMNSLRAEDTAVYYCARSATWHDTALDYWGQGTLVTVSS VL: DIQMTQSPSSLSASVGDRVTITCRASQSILSYVNWYQQKPGKAPKLLIYAVTSRASGVPSRFSGSGSGTDFTLTISSLQPEDFATYYCQQSYDSPLTFGGGTKVEIK
# output 3.42

# input Any idea what optical density was measured for 368_E11 (antibody, V domains shown, VH/VL only) VH: EVQLLESGGGLVQPGGSLRLSCAASGFTFDSYGMHWVRQAPGKGLEWVANINYNGGYTSYADSVKGRFTISRDNSKNTLYLQMNSLRAEDTAVYYCARSATWHDTHLDYWGQGTLVTVSS VL: DIQMTQSPSSLSASVGDRVTITCRASQSIISYVNWYQQKPGKAPKLLIYAATSRHSGVPSRFSGSGSGTDFTLTISSLQPEDFATYYCQQSYELPLTFGGGTKVEIK ?
# output 2.92

# input GET /values?readout=optical density&item= 375_B04 (antibody, V domains shown, VH/VL only) VH: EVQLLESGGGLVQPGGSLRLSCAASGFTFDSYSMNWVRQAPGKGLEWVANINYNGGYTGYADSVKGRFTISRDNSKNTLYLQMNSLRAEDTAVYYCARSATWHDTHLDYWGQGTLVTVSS VL: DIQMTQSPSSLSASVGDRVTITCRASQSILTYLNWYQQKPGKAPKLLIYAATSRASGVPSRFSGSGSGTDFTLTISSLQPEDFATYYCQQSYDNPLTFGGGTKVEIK
# output 3.73
